# Test system: diamondback moth
# Procedure summary: whole plant or invertebrate
# Format: in vivo
# Recorded conditions: Plutella xylostella, foliar, read-out: Insecticidal effects (mortality), diamondback moth second-instar larvae
# Method: Leaf discs 5.0 cm in diameter were cut from cabbage plants grown in pots, and these were sprayed with solutions of the inventive compounds at a predetermined concentration prepared to 50% acetone/water (containing 0.05% Tween 20). The treated leaf discs were air dried, following which second-instar larvae were released onto the discs. […] Three days after released, the numbers of live and dead insects were counted, and the mortality was calculated from the following formula. […]
Endpoint label: mortality at 20 ppm (%)
I only need the number, in %, no unit after it.

O=C(N=c1ccccn1Cc1ccc(Cl)nc1)C(F)(F)F = 100
O=C(N=c1ccccn1Cc1ccc(F)nc1)C(F)(F)F = 40
O=C(N=c1ccccn1Cc1ccc(Cl)nc1)C(F)(F)Cl = 100

Briefly, mortality at 20 ppm measured for CC(c1ccc(Cl)nc1)n1ccccc1=NC(=O)C(F)(F)F (stereo not shown) : 100

Briefly, mortality at 20 ppm measured for O=C(N=c1ccccn1Cc1ccc(Cl)nc1)C(F)F : 60

Briefly, mortality at 20 ppm measured for O=C(N=c1ccccn1Cc1cnc(Cl)c(F)c1)C(F)(F)F : 100

Briefly, mortality at 20 ppm measured for O=C(N=c1ccccn1Cc1ccc(Br)nc1)C(F)(F)F : 100
